system: HCT-116 colon; assay: NCI-60 one-dose screen, 48 h (100 = growth as untreated, 0 = no growth, -100 = all killed); conditions: 10 µM
Compounds without any hit were thinned out: in the full panel of roughly 83,000, 20% have a hit.
Listed next: entries and their corresponding growth.
Only the number, expressed in %, is required.

Worked cases, growth given:
I looked up CC1(C)OC(=O)C(c2ccsc2)C(=O)O1 and its growth for HCT-116 colon was 92.1

I looked up c1ccc2c(N3CCCCC3)ncnc2c1 and its growth for HCT-116 colon was 88.4

I looked up c1ccc(/C(=N\N=C(/c2ccccc2)c2cccs2)c2cccs2)cc1 and its growth for HCT-116 colon was 91.9

I looked up CC(=O)c1ccc2c(ccc3ccccc32)c1 and its growth for HCT-116 colon was 90.3

I looked up O=c1cc(-c2ccccc2)nc2cc(-c3ccco3)[nH]n12 and its growth for HCT-116 colon was 90.3

Others:
I looked up Oc1ccccc1O and its growth for HCT-116 colon was 87.6

I looked up O=C(N/N=C/c1ccccc1O)Nc1nn[nH]n1 and its growth for HCT-116 colon was 89
